// reported IC50 for each item listed
System: KB cells
Test: In vitro KB cell cytotoxicity assay (crystal violet)
Format: cell-based
Details: Homo sapiens, 72 h, 3 days culture, read-out: KB Cell Cytotoxicity TD50
Counter-ions that a name gives are not always drawn.

Please review the following examples before continuing.
{"columns": ["compound", "value-observed"],
 "data": [
  ["O=C(NC[C@@H]1CN2C(=O)C[C@H]2O1)c1ccc(O)cc1 (racemic)", "0.276 µg/mL"],
  ["CC(C)[C@@H](N)C(=O)OC[C@H]1CN2C(=O)C[C@@H]2O1.Cl (mixture of isomers) [Example 60B]", "0.903 µg/mL"]
]}

Okay, next one:
Look at this compound and give its reported IC50. NCC(=O)NC[C@@H]1CN2C(=O)C[C@H]2O1 (relative stereo) [Example 43, hydrochloride]
0.429 µg/mL
